Consider the following molecules and their measured melting point readings.

Illustrative cases are given below, each with its answer.
INSERT INTO results (compound_structure, value_measured) VALUES
  ('COc1ccccc1-n1nncc1-c1ccccc1Sc1ccc([N+](=O)[O-])cc1', '139 to 141 °C'),
  ('COc1ccccc1-n1cc(-c2ccccc2Sc2ccc([N+](=O)[O-])cc2)nn1', '149 to 151 °C');

Given item `COc1ccccc1-c1nnc(-c2ccccc2Sc2ccc([N+](=O)[O-])cc2)o1` , the value recorded as its melting point is 128 to 130 °C

* * *

Consider the following molecules and their measured log10 IC50 readings.
test system: wild-type HIV-1 (HIV-1LAI) in H9 cells (non-permissive); assay: microbe, parasite or virus in culture; assay type: cell-based; settings: Human immunodeficiency virus 1, H9, read-out: Antiviral activity (IC50 μM) H9 Cells, Table 4; wild-type HIV-1, non-permissive H9 cells
Record value = log10 of IC50 given in µM.

Illustrative cases are given below, each with its answer.
INSERT INTO measurements (compound_structure, value_measured) VALUES
  ('COc1ccccc1-n1cc(-c2ccccc2Sc2ccc(N)cc2)nn1', 0.88),
  ('COc1cccc(F)c1-n1cc(-c2ccccc2S(=O)(=O)c2ccc(N)cc2)nn1', 1.18),
  ('COC(=O)c1ccc(Sc2ccccc2-c2cn(-c3c(OC)cccc3OC)nn2)cc1', -0.70),
  ('COc1ccccc1-n1cc(-c2ccccc2S(=O)(=O)c2ccc(N)cc2)nn1', -0.40),
  ('COc1cccc(F)c1-n1cc(-c2ccccc2Sc2ccc(C(=O)O)cc2)nn1', 0.69);

Given item `COc1ccc(OC)c(-n2cc(-c3ccccc3S(=O)(=O)c3ccc([N+](=O)[O-])cc3)nn2)c1` , the value recorded as its log10 IC50 is 0.00

Given item `COc1cccc(OC)c1-n1cc(-c2ccccc2Sc2ccc(N)cc2)nn1` , the value recorded as its log10 IC50 is 0.18

Given item `COc1ccccc1-n1cc(-c2ccccc2S(=O)(=O)c2ccc(C(=O)O)cc2)nn1` , the value recorded as its log10 IC50 is 0.91

Given item `COc1ccc(OC)c(-n2cc(-c3ccccc3Sc3ccc(C(=O)O)cc3)nn2)c1` , the value recorded as its log10 IC50 is 0.65

Given item `COc1ccc(-n2cc(-c3ccccc3S(=O)(=O)c3ccc(C(=O)O)cc3)nn2)c(OC)c1` , the value recorded as its log10 IC50 is -0.15

Given item `COC(=O)c1ccc(S(=O)(=O)c2ccccc2-c2cn(-c3cc(OC)ccc3OC)nn2)cc1` , the value recorded as its log10 IC50 is 0.66

Given item `COc1cccc(-n2cc(-c3ccccc3S(=O)(=O)c3ccc(C(=O)O)cc3)nn2)c1OC` , the value recorded as its log10 IC50 is 0.15

Given item `COc1ccc(Sc2ccccc2-c2cn(-c3cc(OC)ccc3OC)nn2)cc1` , the value recorded as its log10 IC50 is 1.20

Given item `COC(=O)c1ccc(Sc2ccccc2-c2cn(-c3c(F)cccc3OC)nn2)cc1` , the value recorded as its log10 IC50 is 0.89

Given item `COc1cccc(OC)c1-n1cc(-c2ccccc2Sc2ccc(C(=O)O)cc2)nn1` , the value recorded as its log10 IC50 is 0.28

Given item `COC(=O)c1ccc(Sc2ccccc2-c2cn(-c3cc(OC)ccc3OC)nn2)cc1` , the value recorded as its log10 IC50 is -0.70

* * *

tested on: wild-type HIV-1 (HIV-1LAI) in H9 cells (non-permissive); test: microbe, parasite or virus in culture; format: cell-based; details: read-out: Antiviral activity (IC50 μM) H9; Table 2; wild-type HIV-1, non-permissive H9 cells
Consider the following compounds and their measured IC50 readings.

Illustrative cases are given below, each with its answer.
INSERT INTO measurements (compound_structure, system_under_test, value_measured) VALUES
  ('COc1cccc(-n2cc(-c3ccccc3S(=O)(=O)c3ccc(C(=O)O)cc3)nn2)c1OC', 'wild-type HIV-1 (HIV-1LAI) in H9 cells (non-permissive)', '> 50 µM'),
  ('COc1cccc(OC)c1-n1cc(-c2ccccc2S(=O)(=O)c2ccc(C(=O)O)cc2)nn1', 'wild-type HIV-1 (HIV-1LAI) in H9 cells (non-permissive)', '> 50 µM');

Query compound follows.
Given item `COc1ccccc1-n1cc(-c2ccccc2Sc2ccc(C(=O)O)cc2)nn1` , the value recorded as its IC50 is > 50 µM

* * *

tested on: wild-type HIV-1 (HIV-1LAI) in H9 cells (non-permissive); test: microbe, parasite or virus in culture; type: cell-based; conditions: Human immunodeficiency virus 1, H9, read-out: Antiviral activity (IC50 μM) H9 cells, Table 5; wild-type HIV-1, non-permissive H9 cells
observed_property: log10(IC50) (log10 of the value in µM)
Record value = log10 of IC50 given in µM.

Illustrative cases are given below, each with its answer.
INSERT INTO results (molecule, system_under_test, observed_property, value_measured) VALUES
  ('COC(=O)c1ccc(S(=O)(=O)c2ccccc2-c2cn(-c3ccc(OC)cc3OC)nn2)cc1 [Compound 4by]', 'wild-type HIV-1 (HIV-1LAI) in H9 cells (non-permissive)', 'log10(IC50)', 0.88),
  ('COc1cccc(OC)c1-n1cc(-c2ccccc2Sc2ccc(N)cc2)nn1 [Compound 6ex]', 'wild-type HIV-1 (HIV-1LAI) in H9 cells (non-permissive)', 'log10(IC50)', 0.18),
  ('COC(=O)c1ccc(S(=O)(=O)c2ccccc2-c2cn(-c3cc(OC)ccc3OC)nn2)cc1 [Compound 5by]', 'wild-type HIV-1 (HIV-1LAI) in H9 cells (non-permissive)', 'log10(IC50)', 0.66);

Given item COc1ccc(OC)c(-n2cc(-c3ccccc3Sc3ccc(C(F)(F)F)cc3)nn2)c1 [Compound 5dx] , the value recorded as its log10(IC50) is 1.67

Given item COc1cccc(F)c1-n1cc(-c2ccccc2Sc2ccc([N+](=O)[O-])cc2)nn1 [Compound 7ax] , the value recorded as its log10(IC50) is 0.59

* * *

test system: wild-type HIV-1 (HIV-1LAI) in H9 cells (non-permissive); assay: microbe, parasite or virus in culture; format: cell-based; details: Human immunodeficiency virus 1, H9, read-out: IC50, anti-HIV-1 activity; non-permissive H9 cells
pIC50: −log10 of the molar value.
Consider the following compounds and their measured pIC50 readings.

Illustrative cases are given below, each with its answer.
INSERT INTO measurements (compound, value_measured) VALUES
  ('COc1cccc(-n2cc(-c3ccccc3Sc3ccc(C(F)(F)F)cc3)nn2)c1OC [Compound 3dx]', '5.52 to 6.00'),
  ('COc1cccc(-n2cc(-c3ccccc3S(=O)(=O)c3ccc(C(=O)O)cc3)nn2)c1OC [Compound 3fy]', '5.52 to 6.00'),
  ('COc1cccc(-n2cc(-c3ccccc3Sc3ccc(C(=O)O)cc3)nn2)c1OC [Compound 3fx]', '5.52 to 6.00'),
  ('COc1ccc(OC)c(-n2cc(-c3ccccc3S(=O)(=O)c3ccc([N+](=O)[O-])cc3)nn2)c1 [Compound 5ay]', '5.52 to 6.00'),
  ('COc1cccc(-n2cc(-c3ccccc3Sc3ccc([N+](=O)[O-])cc3)nn2)c1OC [Compound 3ax]', '5.52 to 6.00');

Given item COc1cccc(OC)c1-n1cc(-c2ccccc2S(=O)(=O)c2ccc(C(=O)O)cc2)nn1 [Compound 6fy] , the value recorded as its pIC50 is 5.52 to 6.00

Given item COc1ccccc1-n1cc(-c2ccccc2Sc2ccc(N)cc2)nn1 [Compound 2ex] , the value recorded as its pIC50 is 5.52 to 6.00

Given item COc1ccccc1-n1cc(-c2ccccc2Sc2ccc(C(=O)O)cc2)nn1 [Compound 2fx] , the value recorded as its pIC50 is 5.52 to 6.00

Given item COc1cccc(OC)c1-n1cc(-c2ccccc2S(=O)(=O)c2ccc(N)cc2)nn1 [Compound 6ey] , the value recorded as its pIC50 is 5.52 to 6.00

Given item COc1ccccc1-c1noc(-c2ccccc2Sc2ccc([N+](=O)[O-])cc2)n1 [Compound 1c] , the value recorded as its pIC50 is 5.17

Given item COc1ccccc1-c1nnc(-c2ccccc2Sc2ccc([N+](=O)[O-])cc2)o1 [Compound 1b] , the value recorded as its pIC50 is 5.17
